- Test system: Bulk splenocytes from C57BL/6 mice
- assayMethodText: Cytokine response of splenocyte cultures (IL-4 and IFNγ ELISA)
- Assay type: cell-based
- assayContext: 500 nM glycolipid, 48 hours, culture supernatant ELISA; ND = below the reliable level for detection
observable: Cytokine Response IFNγ
Please report the result as a number followed by the unit.

Challenge: Endpoint output: Cytokine Response IFNγ of CCCCCCCCCCCCCC[C@@H](O)[C@@H](O)[C@H](CO[C@H]1O[C@H](CO)[C@H](O)[C@H](O)[C@H]1O)NC(=O)Cc1ccc(C)cc1 . Value?
Response given: 9.03 ng/mL

Challenge: Endpoint output: Cytokine Response IFNγ of CCCCCCCCCCCCCC[C@@H](O)[C@@H](O)[C@H](CO[C@H]1O[C@H](CO)[C@H](O)[C@H](O)[C@H]1O)NC(=O)Cc1ccc(Br)cc1 . Value?
Response given: 19.63 ng/mL

Challenge: Endpoint output: Cytokine Response IFNγ of CCCCCCCCCCCCCCC(O)C(O)C(COC1OC(CO)C(O)C(O)C1O)NC(=O)Cc1ccc2c(c1)OCO2 (stereo not drawn) . Value?
Response given: 14.19 ng/mL
